Test system: Tyrosine-protein kinase ABL1 (Homo sapiens), P00519 [H396P]
Details: at 1 µM
EXPERIMENTAL READOUT: inhibition (%)
Provide only the numeric value, understood in %.

• COc1cccc(-n2cnc3c(N/N=C/c4ccncc4)ncnc32)c1 = 87.1
• CS(=O)(=O)CCNCc1cc(-c2cc3c(Nc4ccc(OCc5cccc(F)c5)c(Cl)c4)ncnc3s2)cs1 = 5.71
• NC(=O)c1cc(-c2ccc(F)cc2)cc(-c2ccncc2)c1N = 5.86
• CN(C)CCCNc1nccc(-c2c(-c3ccc(F)cc3)nn3cc(C(F)(F)F)ccc23)n1 = 4
• Fc1ccc(-c2ncn(CCCN3CCOCC3)c2-c2ccncc2)cc1 = -0.46
• O=C(Nc1n[nH]c2cc(-c3ccccc3)ccc12)C1CC1 = 67.5
• CN1CCN(CCCNc2nc3ccc(Oc4ccc(NC(=O)Nc5cc(C(F)(F)F)ccc5F)cc4)cc3[nH]2)CC1 = 15
• NS(=O)(=O)c1ccc(N/N=C2\C(=O)Nc3ccc(C(=O)NCCCn4ccnc4)cc32)cc1 = 14.3

**Query** Report inhibition, nothing else, for this molecule: COC(=O)Nc1nc2ccc(Sc3ccc(NC(=O)Nc4cc(C(F)(F)F)ccc4F)cc3)cc2[nH]1
**Result** 49.9

###

// reported inhibition per item
Target: Inhibitor of nuclear factor kappa-B kinase subunit alpha (Homo sapiens);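 further: mean inhibition of IKKA, from the GSK PKIS data set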
Settings: at 1 µM

Recorded inhibition, per entry:
- COc1cc2ncn(-c3cc(OCCc4ccccc4)c(C(N)=O)s3)c2cc1OC: 1.12%
- COc1cc(Nc2ncc3c(C)nc(-c4cccc(Oc5ccccc5)c4)n3n2)cc(OC)c1OC: -5.5%
- FC(F)(F)c1cccc(Nc2nccc(-c3cnn4nc(-c5ccccc5)ccc34)n2)c1: 7.04%
- COc1cc(Nc2ncc3c(C)nc(-c4cccc(C(F)(F)F)c4)n3n2)cc(OC)c1OC: 4.04%
- COc1cc2ncn(-c3cc(OCc4cccs4)c(C(N)=O)s3)c2cc1OC: 4.87%
- COc1cc2ncn(-c3cc(OCc4ccccc4C(F)(F)F)c(C(C)=O)s3)c2cc1OC: 7.97%

**Query** Determine its reported inhibition: O=C(Nc1n[nH]c2cc(-c3ccccc3)ccc12)C1CC1
**Result** 7.25%

**Query** Note inhibition for the compound shown: NC(=O)c1ccc(Oc2nccc(-c3c(-c4ccc(F)cc4)ncn3C3CCNCC3)n2)cc1
**Result** 7.33%

**Query** Entry N#Cc1ccc(Oc2nccc(-c3c(-c4ccc(F)cc4)ncn3C3CCNCC3)n2)cc1 needs its inhibition filled in; supply it.
**Result** 4.73%

**Query** Specify inhibition for O=C1NC(=O)C(c2cccc(Cl)c2)=C1Nc1ccc(Cl)c(C(=O)O)c1 and stop.
**Result** -0.25%

###

System: Epidermal growth factor receptor (Homo sapiens), P00533 [L858R,T790M]
Sequence (P00533 whole entry T790M/L858R, looked up): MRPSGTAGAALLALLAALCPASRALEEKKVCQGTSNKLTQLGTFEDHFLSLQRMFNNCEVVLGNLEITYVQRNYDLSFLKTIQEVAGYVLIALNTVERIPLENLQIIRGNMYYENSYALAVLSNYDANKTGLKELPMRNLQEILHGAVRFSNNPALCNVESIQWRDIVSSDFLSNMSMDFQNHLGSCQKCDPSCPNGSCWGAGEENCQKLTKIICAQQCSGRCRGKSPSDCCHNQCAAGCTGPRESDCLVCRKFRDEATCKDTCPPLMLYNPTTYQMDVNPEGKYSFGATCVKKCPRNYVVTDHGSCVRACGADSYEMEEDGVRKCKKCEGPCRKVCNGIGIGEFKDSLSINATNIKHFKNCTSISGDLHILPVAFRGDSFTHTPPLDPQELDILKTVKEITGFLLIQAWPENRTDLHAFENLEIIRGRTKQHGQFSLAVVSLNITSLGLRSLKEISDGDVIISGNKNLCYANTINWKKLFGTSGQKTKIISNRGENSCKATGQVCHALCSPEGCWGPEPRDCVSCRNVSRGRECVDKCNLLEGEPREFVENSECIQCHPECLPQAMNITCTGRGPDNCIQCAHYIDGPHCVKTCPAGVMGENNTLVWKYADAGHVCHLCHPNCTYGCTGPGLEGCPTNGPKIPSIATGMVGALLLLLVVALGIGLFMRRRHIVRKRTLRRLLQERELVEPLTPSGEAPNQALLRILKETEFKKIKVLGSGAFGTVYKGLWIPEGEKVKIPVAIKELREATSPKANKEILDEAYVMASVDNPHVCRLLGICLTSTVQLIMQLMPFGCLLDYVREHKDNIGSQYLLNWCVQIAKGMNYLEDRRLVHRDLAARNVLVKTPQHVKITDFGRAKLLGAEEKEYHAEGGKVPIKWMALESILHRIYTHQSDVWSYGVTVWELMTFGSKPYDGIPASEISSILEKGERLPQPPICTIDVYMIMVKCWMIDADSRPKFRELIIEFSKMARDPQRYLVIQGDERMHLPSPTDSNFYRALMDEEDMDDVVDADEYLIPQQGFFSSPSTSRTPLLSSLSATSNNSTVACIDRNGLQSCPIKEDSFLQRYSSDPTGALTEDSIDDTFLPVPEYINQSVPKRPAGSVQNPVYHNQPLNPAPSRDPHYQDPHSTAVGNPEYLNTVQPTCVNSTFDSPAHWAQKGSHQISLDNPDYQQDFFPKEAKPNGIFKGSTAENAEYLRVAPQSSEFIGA
Settings: at 1 µM
Examples of compounds with documented inhibition follow.
Report the value in % with no unit label.

Answered examples (4):
- COc1cc(C)c(N(C)C(=O)CN(C)C)cc1Nc1nc(Nc2cccc(F)c2C(N)=O)c2cc[nH]c2n1: 1.92
- Fc1ccc(-c2ncn(C3CCNCC3)c2-c2ccnc(Oc3ccc4c(c3)OCO4)n2)cc1: 7.04
- Clc1ccc(CNc2nccc(-c3cnn4ncccc34)n2)cc1: 3.09
- CCc1cccc(CC)c1/C=C/c1cncc(C(=O)NC)c1: 4.31

**Query** Output inhibition of NCc1ccc(-n2c(-c3nonc3N)nc3cnccc32)cc1
**Result** 5.05

**Query** Note down inhibition recorded for NC(=O)c1cc(-c2ccc(F)cc2)cc(-c2ccncc2)c1N
**Result** -0.62

**Query** Give the value of inhibition reported for the following: C[C@@H](Oc1cc(-n2cnc3ccc(OCC4CCN(C)CC4)cc32)sc1C(N)=O)c1ccccc1Cl
**Result** 7.41

**Query** Find the measured inhibition of NC(=O)c1ccc(Oc2nccc(-c3c(-c4ccc(F)cc4)ncn3C3CCNCC3)n2)cc1 and report it.
**Result** 1.81

**Query** For the compound c1ccc(Oc2ccc(Nc3ncc(-c4ccccc4)o3)cc2)cc1 , report inhibition.
**Result** 4.16

**Query** Provide inhibition value for the following compound: COc1cc(N2CCN(C(C)C)CC2)ccc1Nc1nc(Nc2ccc(F)cc2C(=O)NC[C@@H](O)CO)c2cc[nH]c2n1
**Result** 60.2

**Query** For the compound Cc1nnc(-c2ccc(C)c(-c3ccc(C(=O)NCc4ccc(Cl)cc4)cc3)c2)o1 , give its measured inhibition value.
**Result** 2.04
